Target: 3',5'-cyclic-AMP phosphodiesterase 4B (Homo sapiens, UniProt Q07343)
Sequence (Q07343 whole entry): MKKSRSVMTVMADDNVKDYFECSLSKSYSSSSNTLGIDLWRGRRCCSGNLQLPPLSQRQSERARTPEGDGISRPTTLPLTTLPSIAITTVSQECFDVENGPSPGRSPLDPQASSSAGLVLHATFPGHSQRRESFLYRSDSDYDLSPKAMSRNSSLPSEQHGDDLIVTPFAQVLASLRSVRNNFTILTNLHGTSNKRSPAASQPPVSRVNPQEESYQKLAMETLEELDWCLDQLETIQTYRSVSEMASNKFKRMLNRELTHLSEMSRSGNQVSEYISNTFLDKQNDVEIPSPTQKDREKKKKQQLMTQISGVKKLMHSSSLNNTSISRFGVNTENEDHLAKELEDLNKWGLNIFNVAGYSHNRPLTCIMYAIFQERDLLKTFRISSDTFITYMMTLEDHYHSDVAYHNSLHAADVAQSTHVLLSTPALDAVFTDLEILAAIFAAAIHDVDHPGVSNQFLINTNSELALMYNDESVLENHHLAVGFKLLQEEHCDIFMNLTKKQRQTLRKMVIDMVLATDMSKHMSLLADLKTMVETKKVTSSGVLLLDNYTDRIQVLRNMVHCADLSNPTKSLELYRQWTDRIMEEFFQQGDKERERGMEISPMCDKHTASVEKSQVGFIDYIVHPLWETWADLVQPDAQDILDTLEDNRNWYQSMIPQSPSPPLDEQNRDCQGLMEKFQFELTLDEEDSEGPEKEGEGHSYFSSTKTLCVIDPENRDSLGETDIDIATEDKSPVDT
Test: Inhibition of human GST-PDE4B
pIC50: −log10 of the molar value.
Respond with Satisfied for pIC50 values of 9 and above, Not satisfied for values below.

1) CC(C)(c1cc(-c2cccc(C(=O)Nc3c(Cl)cncc3Cl)c2)c2ncccc2c1)S(C)(=O)=O	Satisfied
2) CC(C)NC(=O)N(Cc1cc(-c2cc(C(C)(C)S(C)(=O)=O)cc3cccnc23)ccc1F)c1ccc(S(C)(=O)=O)cc1	Satisfied
3) CC(C)NC(=O)N(Cc1cccc(-c2cc(C(C)(C)C#N)cc3cccnc23)c1)c1ccc(S(C)(=O)=O)cc1	Satisfied
4) CC(C)NC(=O)N(Cc1cc(-c2cc(C(C)(C)S(C)(=O)=O)cc3cccnc23)ccc1Cl)c1ccc(S(C)(=O)=O)cc1	Not satisfied
5) CC(c1cccc(-c2cc(C(C)(C)S(C)(=O)=O)cc3cccnc23)c1)N(C(=O)c1ccc(C(C)(C)O)cc1)c1ccc(S(C)(=O)=O)cc1 (stereo not drawn)	Satisfied
6) CC(C)(c1cc(-c2cccc(C(=O)Nc3ccc(S(C)(=O)=O)cc3)c2)c2ncccc2c1)S(C)(=O)=O	Satisfied
7) CC(=O)N(c1ccc(S(C)(=O)=O)cc1)C(C)c1cccc(-c2cc(C(C)(C)S(C)(=O)=O)cc3cccnc23)c1 (stereo not drawn)	Not satisfied
8) CC(C)(C#N)c1cc(-c2cccc(CN(C(=O)c3ccccc3)c3ccc(S(C)(=O)=O)cc3)c2)c2ncccc2c1	Satisfied

* * *

Molecular target: UniProt P27815
pIC50: −log10 of the molar value.
RECORDED ENDPOINT: pIC50

1) CC(C)(c1cc(-c2cccc(C(=O)Nc3c(Cl)cncc3Cl)c2)c2ncccc2c1)S(C)(=O)=O	9.22
2) CC(C)(c1cc(-c2cccc(C(=O)Nc3ccncc3)c2)c2ncccc2c1)S(C)(=O)=O	8.51
3) CC(C)(c1cc(-c2cccc(C(N)=O)c2)c2ncccc2c1)S(C)(=O)=O	7.11
4) CC(c1cccc(-c2cc(C(C)(C)S(C)(=O)=O)cc3cccnc23)c1)N(C(=O)c1cccnc1)c1ccc(S(C)(=O)=O)cc1 (stereo not given)	8.68
5) CC(C)(c1cc(-c2cccc(C(=O)Nc3ccccc3)c2)c2ncccc2c1)S(C)(=O)=O	7.80
6) CC(C)NC(=O)N(c1ccc(S(C)(=O)=O)cc1)C(C)c1cccc(-c2cc(C(C)(C)S(C)(=O)=O)cc3cccnc23)c1 (stereo not given)	8.74
7) CC(c1cccc(-c2cc(C(C)(C)S(C)(=O)=O)cc3cccnc23)c1)N(C(=O)c1ccc(F)cc1)c1ccc(S(C)(=O)=O)cc1 (single isomer, unassigned; enantiomer A)	7.82
8) CC(c1cccc(-c2cc(C(C)(C)S(C)(=O)=O)cc3cccnc23)c1)N(C(=O)c1ccc(F)cc1)c1ccc(S(C)(=O)=O)cc1 (racemic)	8.64
9) CC(C)(C#N)c1cc(-c2cccc(CN(C(=O)Nc3ccccc3)c3ccc(S(C)(=O)=O)cc3)c2)c2ncccc2c1	10.00
10) CC(=O)N(c1ccc(S(C)(=O)=O)cc1)C(C)c1cccc(-c2cc(C(C)(C)S(C)(=O)=O)cc3cccnc23)c1 (stereo not given)	8.00

* * *

Test: Oral bioavailability in rat
Type: ADME, organism-based
Conditions: in vivo
RECORDED ENDPOINT: bioavailability (%)

1) CC(c1cccc(-c2cc(C(C)(C)S(C)(=O)=O)cc3cccnc23)c1)N(C(=O)c1ccc(F)cc1)c1ccc(S(C)(=O)=O)cc1 (racemic)	67

* * *

Assay: Oral bioavailability in squirrel monkey
Format: ADME, organism-based, Saimiri sciureus
Details: in vivo
RECORDED ENDPOINT: bioavailability (%)

1) CC(c1cccc(-c2cc(C(C)(C)S(C)(=O)=O)cc3cccnc23)c1)N(C(=O)c1ccc(F)cc1)c1ccc(S(C)(=O)=O)cc1 (racemic)	98

* * *

Listing of recorded pIC50 by entry.
Biological target: 3',5'-cyclic-AMP phosphodiesterase 4A (Homo sapiens)
Sequence (P27815 whole entry): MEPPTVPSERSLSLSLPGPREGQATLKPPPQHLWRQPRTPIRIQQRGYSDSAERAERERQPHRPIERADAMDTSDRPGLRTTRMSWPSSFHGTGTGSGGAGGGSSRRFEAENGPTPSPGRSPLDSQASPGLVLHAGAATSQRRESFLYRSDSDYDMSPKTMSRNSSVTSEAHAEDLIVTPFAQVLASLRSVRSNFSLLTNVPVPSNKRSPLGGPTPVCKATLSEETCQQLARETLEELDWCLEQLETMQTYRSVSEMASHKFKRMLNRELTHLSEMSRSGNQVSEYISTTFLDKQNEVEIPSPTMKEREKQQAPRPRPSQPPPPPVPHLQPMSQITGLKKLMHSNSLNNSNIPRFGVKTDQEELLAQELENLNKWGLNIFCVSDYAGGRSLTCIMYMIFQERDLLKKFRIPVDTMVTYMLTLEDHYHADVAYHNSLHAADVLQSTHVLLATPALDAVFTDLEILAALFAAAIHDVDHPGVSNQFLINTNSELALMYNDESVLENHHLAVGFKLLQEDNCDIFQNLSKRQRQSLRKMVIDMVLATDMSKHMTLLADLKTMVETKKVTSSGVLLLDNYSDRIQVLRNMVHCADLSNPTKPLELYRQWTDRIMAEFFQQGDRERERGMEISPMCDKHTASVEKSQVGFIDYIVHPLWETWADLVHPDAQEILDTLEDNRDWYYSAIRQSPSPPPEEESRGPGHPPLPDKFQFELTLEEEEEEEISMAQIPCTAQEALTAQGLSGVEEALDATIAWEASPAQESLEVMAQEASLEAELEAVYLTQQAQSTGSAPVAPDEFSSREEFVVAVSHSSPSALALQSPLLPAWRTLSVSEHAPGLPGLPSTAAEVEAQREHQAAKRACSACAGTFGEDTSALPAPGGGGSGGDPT
pIC50: −log10 of the molar value.
RECORDED ENDPOINT: pIC50

1. CC(C)NC(=O)N(Cc1cc(-c2cc(C(C)(C)S(C)(=O)=O)cc3cccnc23)ccc1F)c1ccc(S(C)(=O)=O)cc1	9.22
2. CC(C)(c1cc(-c2cccc(NC(=O)c3ccc(S(C)(=O)=O)cc3)c2)c2ncccc2c1)S(C)(=O)=O	8.77
3. CC(c1cccc(-c2cc(C(C)(C)S(C)(=O)=O)cc3cccnc23)c1)N(C(=O)c1ccc(F)cc1)c1ccc(S(C)(=O)=O)cc1 (single isomer, unassigned; enantiomer B)	8.74
4. CC(C)NC(=O)N(Cc1cccc(-c2cc(C(C)(C)S(C)(=O)=O)cc3cccnc23)c1)c1ccc(S(C)(=O)=O)cc1	10.00

* * *

Biological target: 3',5'-cyclic-AMP phosphodiesterase 4B (Homo sapiens)
Assay: Inhibition of human GST-PDE4B
pIC50: −log10 of the molar value.
Listing of recorded pIC50 by entry.
RECORDED ENDPOINT: pIC50

1. CC(C)NC(=O)N(Cc1cccc(-c2cc(C(C)(C)S(C)(=O)=O)cc3cccnc23)c1)c1ccc(S(C)(=O)=O)cc1	10.00
2. CC(C)(C#N)c1cc(-c2cccc(CN(Cc3ccc(F)cc3)c3ccc(S(C)(=O)=O)cc3)c2)c2ncccc2c1	10.00
3. CC(C)(c1cc(-c2cccc(C(=O)Nc3ccccc3)c2)c2ncccc2c1)S(C)(=O)=O	8.23
4. CC(C)(c1cc(-c2cccc(C(N)=O)c2)c2ncccc2c1)S(C)(=O)=O	7.40
5. CC(C)NC(=O)N(c1ccc(S(C)(=O)=O)cc1)C(C)c1cccc(-c2cc(C(C)(C)S(C)(=O)=O)cc3cccnc23)c1 (configuration not stated)	9.15
6. CC(c1cccc(-c2cc(C(C)(C)S(C)(=O)=O)cc3cccnc23)c1)N(C(=O)c1ccc(F)cc1)c1ccc(S(C)(=O)=O)cc1 (single isomer, unassigned; enantiomer A)	8.24
7. Cc1cc(C(=O)N(Cc2cccc(-c3cc(C(C)(C)C#N)cc4cccnc34)c2)c2ccc(S(C)(=O)=O)cc2)no1	10.00

* * *

Experiment: Cmax in rat
Type: ADME, organism-based
Settings: in vivo
RECORDED ENDPOINT: Cmax (nM)

1. CC(c1cccc(-c2cc(C(C)(C)S(C)(=O)=O)cc3cccnc23)c1)N(C(=O)c1ccc(F)cc1)c1ccc(S(C)(=O)=O)cc1 (racemic)	2700

* * *

Target: 3',5'-cyclic-AMP phosphodiesterase 4B (Homo sapiens, UniProt Q07343)
Assay: Ability to block TNFalpha release through inhibition of PDE4 in LPS-stimulated human whole blood
Assay type: functional, tissue-based
RECORDED ENDPOINT: IC50 (nM)

1. CC(C)(C#N)c1cc(-c2cccc(CN(C(=O)c3ccccc3)c3ccc(S(C)(=O)=O)cc3)c2)c2ncccc2c1	80
2. CC(=O)N(c1ccc(S(C)(=O)=O)cc1)C(C)c1cccc(-c2cc(C(C)(C)S(C)(=O)=O)cc3cccnc23)c1 (stereo not given)	2000
3. Cc1cc(C(=O)N(Cc2cccc(-c3cc(C(C)(C)C#N)cc4cccnc34)c2)c2ccc(S(C)(=O)=O)cc2)no1	30
4. CC(C)(c1cc(-c2cccc(C(=O)Nc3c(Cl)cncc3Cl)c2)c2ncccc2c1)S(C)(=O)=O	90
5. CC(C)NC(=O)N(Cc1cc(-c2cc(C(C)(C)S(C)(=O)=O)cc3cccnc23)ccc1F)c1ccc(S(C)(=O)=O)cc1	50
6. CC(C)(c1cc(-c2cccc(C(=O)Nc3ccccc3)c2)c2ncccc2c1)S(C)(=O)=O	7000
7. CC(C)(C#N)c1cc(-c2cccc(CN(C(=O)Nc3ccccc3)c3ccc(S(C)(=O)=O)cc3)c2)c2ncccc2c1	40
8. CC(c1cccc(-c2cc(C(C)(C)S(C)(=O)=O)cc3cccnc23)c1)N(C(=O)C1CC1)c1ccc(S(C)(=O)=O)cc1 (stereo not given)	800
9. CC(c1cccc(-c2cc(C(C)(C)S(C)(=O)=O)cc3cccnc23)c1)N(C(=O)c1ccc(C(C)(C)O)cc1)c1ccc(S(C)(=O)=O)cc1 (stereo not given)	270
10. CC(C)NC(=O)N(c1ccc(S(C)(=O)=O)cc1)C(C)c1cccc(-c2cc(C(C)(C)S(C)(=O)=O)cc3cccnc23)c1 (stereo not given)	400
11. CC(C)NC(=O)N(Cc1cc(-c2cc(C(C)(C)S(C)(=O)=O)cc3cccnc23)ccc1Cl)c1ccc(S(C)(=O)=O)cc1	4000
12. CC(C)(C#N)c1cc(-c2cccc(CN(Cc3ccc(F)cc3)c3ccc(S(C)(=O)=O)cc3)c2)c2ncccc2c1	1800
13. CC(c1cccc(-c2cc(C(C)(C)S(C)(=O)=O)cc3cccnc23)c1)N(C(=O)c1ccc(F)cc1)c1ccc(S(C)(=O)=O)cc1 (racemic)	560
14. CC(C)OC(=O)N(Cc1cccc(-c2cc(C(C)(C)C#N)cc3cccnc23)c1)c1ccc(S(C)(=O)=O)cc1	80
15. CC(c1cccc(-c2cc(C(C)(C)S(C)(=O)=O)cc3cccnc23)c1)N(C(=O)c1cccnc1)c1ccc(S(C)(=O)=O)cc1 (stereo not given)	210
